- SYSTEM_UNDER_TEST: T1, 8A
- T1 construct: also called HLA-A2 / point-mutant NY-ESO peptide 8A complex on T2 cells
- ASSAY_TEXT: flow cytometry on peptide-pulsed T2 cells, scFv 100 nM
READOUT_TYPE: standardized gMFI
When you answer, write just the number.

In: Returns the measured standardized gMFI for the input binder. Input: NYA-2048 (scFv, also called NYA-2048 tag adduct) scFv: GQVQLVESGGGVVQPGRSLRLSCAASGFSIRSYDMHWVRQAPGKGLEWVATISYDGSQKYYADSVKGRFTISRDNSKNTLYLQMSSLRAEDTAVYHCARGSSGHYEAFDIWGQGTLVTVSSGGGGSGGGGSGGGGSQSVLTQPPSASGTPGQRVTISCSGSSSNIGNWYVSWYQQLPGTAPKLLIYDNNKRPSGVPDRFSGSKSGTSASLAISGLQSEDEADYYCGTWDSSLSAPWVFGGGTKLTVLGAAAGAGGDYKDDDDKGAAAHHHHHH
Out: 4.11
